tested on: BJeLR; assay: Modulatory profiling: Alamar Blue viability, lethal compound cotreated with death modulator (EC50, AUC); assay type: cell-based, human; conditions: Homo sapiens, BJeLR, 48 h; cotreated with iron-chelator Lmim
RESULT TYPE: pEC50
Answers are plain numbers, as −log10 of the molar value.

Reference set (2 entries):
{"ITEM SMILES": "O=C(CCl)N(c1ccccc1)c1c[nH]c2ccccc12", "RESULT TYPE": "pEC50", "MEASURED RESULT": 6.01}
{"ITEM SMILES": "O=S(=O)(c1ccc2c(c1)C(=NO)c1cc(S(=O)(=O)N3CCCCC3)ccc1-2)N1CCCCC1", "RESULT TYPE": "pEC50", "MEASURED RESULT": 6.03}

Record COC(=O)[C@@H]1Cc2c([nH]c3ccccc23)C(C)(C)N1C(=O)CCl . Reported pEC50: 6.18

---

test system: BJeLR; assay: Modulatory profiling: Alamar Blue viability, lethal compound cotreated with death modulator (EC50, AUC); format: cell-based, human; conditions: BJeLR cells; lethal compound cotreated with modulator Lmin/NAD+; modulatory profile value (AUC)
Where a SMILES comes first, the peptide text is derived from it. The star is where a group is joined. Cbz = O=C(OCc1ccccc1)*
RESULT TYPE: AUC, modulator BJ.Lmin/NAD+
Numbers only.

{"COMPOUND": "CC(C)C[C@@H](C=O)NC(=O)[C@H](CC(C)C)NC(=O)[C@H](CC(C)C)NC(=O)OCc1ccccc1 [MG132, reference compound] (Cbz-Leu-Leu-Leu-aldehyde)", "AUC, modulator BJ.Lmin/NAD+": 0.2064}
{"COMPOUND": "CN(C)CCNC(=O)c1cc2c(s1)-c1ccc(Cl)cc1SC2", "AUC, modulator BJ.Lmin/NAD+": 0.1924}
{"COMPOUND": "CC(/C=C/C(=O)NO)=C\\[C@@H](C)C(=O)c1ccc(N(C)C)cc1", "AUC, modulator BJ.Lmin/NAD+": 0.1597}

Batch request: AUC, modulator BJ.Lmin/NAD+ per item, same order as input.
1. CC1CC(C)(C)Nc2ccc(OC(=O)c3ccco3)cc21 (stereo not shown)
2. O=S1(=O)Nc2c(ccc3cccnc23)-c2ccccc21
3. CCCCS(=O)(=O)/C=C\C=C/S(=O)(=O)CCCC
4. COc1cc([C@@H]2c3cc4c(cc3[C@@H](O[C@@H]3O[C@@H]5CO[C@@H](C)O[C@H]5[C@H](O)[C@H]3O)[C@H]3COC(=O)[C@H]23)OCO4)cc(OC)c1O [Etoposide]

// result
0.08674
0.1599
0.07067
0.1011

Need AUC, modulator BJ.Lmin/NAD+ for each of these compounds.
1. COC(C)(C)C#CC(=O)c1cccc2ccccc12
2. [O-][N+]1=c2ccc(Nc3ccccc3)cc2=NC12CCCCC2
3. O=C1c2ccccc2-c2onc3ccc(Oc4ccccc4)c1c23
4. O=C(CCCCCN1C(=O)c2cccc3cccc(c23)C1=O)NO
5. Cc1cccnc1Nc1nc(-c2ccccn2)cs1
6. CC(C)C[C@H](NC(=O)[C@H](CC(C)C)NC(=O)[C@H](CC(C)C)NC(=O)OCc1ccccc1)B(O)O

// result
[0.04257, 0.06444, "−0.0638", 0.2114, "−0.05456", 0.152]
